- target: 5-HT2A (Homo sapiens, UniProt P28223)
- Sequence (P28223 whole entry): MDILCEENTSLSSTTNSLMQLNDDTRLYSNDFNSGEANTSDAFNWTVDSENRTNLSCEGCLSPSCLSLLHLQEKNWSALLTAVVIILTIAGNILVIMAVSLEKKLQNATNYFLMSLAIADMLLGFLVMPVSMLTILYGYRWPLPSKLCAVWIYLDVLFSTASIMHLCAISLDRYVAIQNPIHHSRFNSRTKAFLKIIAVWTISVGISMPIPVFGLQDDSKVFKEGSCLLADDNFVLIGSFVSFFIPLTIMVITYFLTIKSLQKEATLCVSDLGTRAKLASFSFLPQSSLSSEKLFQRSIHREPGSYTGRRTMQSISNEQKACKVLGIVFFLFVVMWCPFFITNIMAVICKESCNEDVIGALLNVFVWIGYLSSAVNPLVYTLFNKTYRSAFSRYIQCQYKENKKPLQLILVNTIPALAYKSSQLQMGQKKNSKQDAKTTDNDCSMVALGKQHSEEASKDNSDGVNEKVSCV
- runDescription: IPOne (IP1 HTRF) assay, CHO-K1 cells expressing human 5-HT2A
- Assay type: cell-based
- Parameters: expressed in transfected cells; host or cells: CHO-K1
- conditionSummary: CHO-K1, human 5-HT2A
pEC50: −log10 of the molar value.
Param threshold (7) applies to pEC50; output Condition met when value >= threshold, Condition not met when value < threshold.

>>> df
                                   compound     classification
0  C[C@H](O)[C@@H]1CCCN1CCc1c[nH]c2ccccc12 [Compound 73]  Condition not met
1  OC[C@@H]1CCCN1CCc1c[nH]c2ccc(F)cc12 [Compound 59]      Condition met
2  OC[C@@H]1CCCN1CCc1c[nH]c2ccc(O)cc12 [Compound 51]      Condition met
3  CC(C)(O)[C@@H]1CCCN1CCc1c[nH]c2ccccc12 [Compound 74]  Condition not met
4  COC(=O)[C@@H]1CCCN1CCc1c[nH]c2ccccc12 [Compound 33]  Condition not met
5  COc1ccc2[nH]cc(CCN3CCC[C@H]3CO)c2c1 [Compound 50]      Condition met
6  CC(C)OC(=O)[C@@H]1CCCN1CCc1c[nH]c2ccccc12 [Compound 55]  Condition not met
7  COc1cccc2[nH]cc(CCN3CCC[C@H]3CO)c12 [Compound 48]      Condition met

###

Listing: activation at 0.3 µM of selected compounds
- target: 5-HT2A (Homo sapiens, UniProt P28223)
- runDescription: IPOne (IP1 HTRF) assay, CHO-K1 cells expressing human 5-HT2A
- Format: cell-based
- Design: expressed in transfected cells; host or cells: CHO-K1
- conditionSummary: CHO-K1; @0.3 uM; percentage of reference agonist α-Me-5-HT at its EC100
measuredEndpoint: activation at 0.3 µM

>>> print(df.to_string())
                                    compound  result
 0  CC(C)OC(=O)[C@@H]1CCCN1CCc1c[nH]c2ccccc12   68.1%
 1    CCOC(=O)[C@@H]1CCCN1CCc1c[nH]c2ccccc12     24%
 2    CC(C)(O)[C@@H]1CCCN1CCc1c[nH]c2ccccc12   80.2%
 3  OCC1CCCN1CCc1c(Cl)[nH]c2ccc(F)cc12 (stereo not shown)     61%
 4  CC[C@H](O)[C@@H]1CCCN1CCc1c[nH]c2ccccc12   1.39%
 5       OC[C@@H]1CCCN1CCc1c[nH]c2ccc(O)cc12     99%
 6  OCC1CCCN1CCc1c(Br)[nH]c2ccc(F)cc12 (stereo not shown)   15.1%
 7  COc1ccc(Br)c2[nH]cc(CCN3CCCC3CO)c12 (stereo not shown)   78.5%
 8            OC[C@H]1CCN1CCc1c[nH]c2ccccc12   3.07%
 9       COc1ccc2[nH]cc(CCN3CCC[C@H]3CO)c2c1    100%
10  OC[C@@H]1CCCN1CCc1c[nH]c2ccc(OC(F)(F)F)cc12   46.1%
11  OCC1CCCN1CCc1c[nH]c2cccc(O)c12 (stereo not shown)   99.4%
12   C[C@H](O)[C@@H]1CCCN1CCc1c[nH]c2ccccc12   61.9%
13           OC[C@H]1CCCN1CCc1c[nH]c2ccccc12   7.16%
14      COC(=O)[C@H]1CCCN1CCc1c[nH]c2ccccc12    4.6%
15       COc1cccc2[nH]cc(CCN3CCC[C@H]3CO)c12   83.2%
16          OC[C@@H]1CCCN1CCc1c[nH]c2ccccc12   76.5%
17       OC[C@@H]1CCCN1CCc1c[nH]c2cccc(O)c12   99.2%
18          OC[C@@H]1CCCN1CCc1c[nH]c2ncccc12   0.81%
19      OC[C@@H]1CCCN1CCc1c(Br)[nH]c2ccccc12   4.69%
20  NCC1CCCN1CCc1c[nH]c2ccccc12 (stereo not shown)   10.2%
21  COc1cccc2[nH]c(Br)c(CCN3CCCC3CO)c12 (stereo not shown)   27.2%
22  OC1CCN(CCc2c[nH]c3ccccc23)C1 (stereo not shown)   7.01%
23        C[C@@]1(CO)CCCN1CCc1c[nH]c2ccccc12  -11.3%
24           OC[C@@H]1CCN1CCc1c[nH]c2ccccc12   81.1%
25  COc1ccc2[nH]cc(CCN3CCCC3CO)c2c1 (stereo not shown)   97.8%
26  COc1ccc2[nH]c(Br)c(CCN3CCCC3CO)c2c1 (stereo not shown)   5.63%
27  C[C@@H](O)[C@@H]1CCCN1CCc1c[nH]c2ccccc12   23.4%
28     COC(=O)[C@@H]1CCCN1CCc1c[nH]c2ccccc12     44%
29  OCC1CCCN1CCc1c[nH]c2ccccc12 (stereo not shown)   47.9%
30       OC[C@@H]1CCCN1CCc1c[nH]c2ccc(F)cc12   86.3%
31    COC(=O)[C@]1(C)CCCN1CCc1c[nH]c2ccccc12  -16.3%
32     COC(=O)[C@@H]1CCCN1CCc1c[nH]c2ncccc12   0.14%
33  CC[C@@H](O)[C@@H]1CCCN1CCc1c[nH]c2ccccc12   23.9%
